Recorded composite z-score for the following compounds
biological target: Albumin (Bos taurus); test: bovine serum albumin binders on microarray, profiling panel, artefact control for SMM control protein annotation, biochemical, small-molecule microarray, Alexa647 label, 635/667 nm fluorescence (AID 1118); details: BSA-A647 binding, fluorescence 635 nm, higher = more signal;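 further: score merges 667 nm emission intensity and signal-to-noise per printed compound spot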
quantityName: composite z-score

>>> value("CCCCCCCCCCC(O)C1C=CC2C(=O)N(C)C(=O)C2N1Nc1ccc([N+](=O)[O-])cc1[N+](=O)[O-] (centres undefined)")
0.884
>>> value("C=CCC(OC(C)=O)[C@@H]1[C@@H](N(Cc2ccc(-c3ccccc3)cc2)C(=O)Cc2ccc(F)cc2)c2cc(OCCCO)ccc2N1C(=O)Cc1ccc(OC)cc1 (some centres undefined)")
-0.0495
>>> value("CCCC[C@@H]1C[C@H]1[C@@H](NC(=O)c1ccccc1)c1ccc(C(F)(F)F)cc1")
-0.0844
>>> value("COC(=O)[C@@]1(Cc2ccc(F)cc2)[C@H]2c3cc(C(=O)N(C)C)n(CCc4ccc(O)c(OC)c4)c3C[C@H]2CN1C(=O)c1ccccc1")
0.24

----------
experiment: PSAC antagonists in infected red cells, primary screen, cell-based, P. falciparum Indochina, OD700, 18 h (AID 1157); settings: P. falciparum Indochina infected erythrocytes, osmotic lysis OD700, 18 h; higher = more signal, called active from +8 up or from −8 down
quantityName: z-score

>>> value("COC(=O)Cn1c(C(=O)N(C)C)cc2c1C[C@H]1CN(C(=O)c3ccccc3)[C@@](Cc3ccc(F)cc3)(C(=O)OC)[C@@H]21")
0.52
>>> value("COCCOC(=O)N1C(=O)[C@@]2(c3cc(C#CC4(O)CCCCCC4)ccc31)[C@H](c1ccc(O)cc1)N1[C@H](c3ccccc3)[C@H](c3ccccc3)OC(=O)[C@H]1[C@@H]2C(=O)NC[C@H](O)c1ccccc1")
0.196
>>> value("CO[C@H]1O[C@H](CO)[C@@H](OC(=O)Nc2ccccc2-c2ccccc2)[C@H](OC(=O)Nc2ccc3c(c2)OCO3)[C@H]1OC(=O)Nc1ccc2c(c1)OCO2")
0.666
>>> value("COC(=O)c1c(CC[C@@H](CO)NC(=O)N2CCC[C@H]2Cn2cc(Cc3ccccc3)nn2)oc(C(C)=O)c1C(=O)OC")
-0.033
>>> value("COc1ccc([Si](C)(C)[C@@H]2[C@@H](CCn3cc([C@H](O)c4ccccc4)nn3)O[C@]3(C(=O)N(Cc4ccc(N5CCC5=O)cc4)c4ccccc43)[C@H]2C)cc1")
1.19
>>> value("COCCOC(=O)N1C(=O)[C@@]2(c3cc(C#Cc4ccc(OC)cc4)ccc31)[C@H](c1ccccc1OCCO)N1[C@H](c3ccccc3)[C@H](c3ccccc3)OC(=O)[C@H]1[C@@H]2C(=O)N1CCCCCCC1")
-0.122
>>> value("CCCCC=C[C@@H](NC(=O)c1ccc(-c2ccccc2)cc1)c1ccccc1")
0.862
>>> value("COc1cc2c(cc1O)C(C)N(Cc1ccc([N+](=O)[O-])o1)CC2 (stereo not given)")
0.424
>>> value("COC(=O)[C@@]1(Cc2ccc(OC)cc2)[C@@H]2C(=CC(=O)[C@H]2CC(=O)C(=O)N(C)C)CN1C(=O)c1ccccc1")
1.38
>>> value("Cc1ccc(S[C@]2(C(=O)NCC(F)(F)F)CC(=O)N(Cc3ccccc3)[C@@H]2c2ccc(CO)cc2I)cc1")
0.279
